# Lookup of reported OD450/OD450 Control antibody 1 keyed by entry
measurement target: T1, soluble human IL-4Rα (sIL-4Rα; PEPRO TECH, Catalog Number: 200-04R) (human, UniProt P24394 26-232)
T1 construct: Bought protein; also called shIL-4Rα; soluble hIL-4 Rα
T1 sequence: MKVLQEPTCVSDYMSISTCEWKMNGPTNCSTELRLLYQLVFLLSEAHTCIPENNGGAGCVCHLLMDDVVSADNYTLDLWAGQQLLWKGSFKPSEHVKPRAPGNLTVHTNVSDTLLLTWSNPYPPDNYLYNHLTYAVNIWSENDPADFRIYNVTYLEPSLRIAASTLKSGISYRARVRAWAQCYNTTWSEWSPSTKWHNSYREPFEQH
experimental protocol: ELISA, coated sIL-4Rα, culture supernatant

{"columns": ["binder", "OD450/OD450 Control antibody 1"],
 "data": [
  ["L1020H1000 (antibody, V domains shown) VH: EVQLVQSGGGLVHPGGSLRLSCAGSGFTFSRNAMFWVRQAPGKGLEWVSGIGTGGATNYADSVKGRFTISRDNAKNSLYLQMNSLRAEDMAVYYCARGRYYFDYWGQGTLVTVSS VL: EIVLTQSPGTLSLSPGERATLSCRASQSVSSSYLAWYQQKPGQAPRLLIYGASSRATGIPDRFSGSGSGTDFTLTISRLEPEDFAVYYCQQYDHSAGWTFGQGTKVEIK", "2.27 ratio to control antibody 1"],
  ["L1021H1031 (antibody, V domains shown) VH: EVQLVESGGGLVQPGGSLRLSCAASGFTFSRNAMFWVRQAPGKGLEWVSGIGTGGATSYADSVKGRFTISRDNAKNSLYLQMNSLRAEDTAVYYCARGRYYFDYWGQGTLVTVSS VL: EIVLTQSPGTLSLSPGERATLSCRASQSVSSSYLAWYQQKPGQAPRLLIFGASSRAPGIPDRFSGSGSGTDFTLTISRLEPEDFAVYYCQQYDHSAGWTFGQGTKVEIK", "0.9 ratio to control antibody 1"],
  ["L1020H1027 (antibody, V domains shown) VH: EVQLVESGGGLVHPGGSLRLSCAASGFTFSRNAMFWVRQAPGKGLEWVSGIGTGGATSYADSVKGRFTISRDNAKNSLYLQMNSLRAEDTAVYYCARGRYYFPWWGQGTLVTVSS VL: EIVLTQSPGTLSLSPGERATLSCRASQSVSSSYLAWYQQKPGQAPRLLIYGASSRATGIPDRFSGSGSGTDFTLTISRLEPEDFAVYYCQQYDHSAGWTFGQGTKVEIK", "0.4 ratio to control antibody 1"]
]}
